Experimental target: BRISC BRCC36 L169W (Homo sapiens, UniProt P46736+Q15018+Q9NXR7, L169W)
Experimental protocol: BRISC mutant IQF assay: BRCC36 L169W
Property: pIC50
# pIC50 = -log10(concentration in molar units)

Which pIC50 is listed for O=C(NC1C2CNCC21)c1nn(C(=O)c2c(Cl)cccc2Cl)cc1NC(=O)c1c(Cl)cccc1Cl (stereo not shown) ? 4.04

###

Experimental target: BRISC Abraxas2 T135K (Homo sapiens, UniProt P46736+Q15018+Q9NXR7, T135K)
Experimental protocol: BRISC mutant IQF assay: Abraxas2 T135K
Format: biochemical
Property: pIC50
// pIC50 is dimensionless: -log10 of concentration (M)

Recorded pIC50 for O=C(NC1C2CNCC21)c1nn(C(=O)c2c(Cl)cccc2Cl)cc1NC(=O)c1c(Cl)cccc1Cl (stereo not shown) , please? 5.82

###

Experimental target: BRISC BRCC45 R137A+F140A (Homo sapiens, UniProt P46736+Q15018+Q9NXR7, F140A/R137A)
Experimental protocol: BRISC mutant IQF assay: BRCC45 R137A+F140A
Property: IC50 (µM)
Provide only the numeric value, understood in µM.

Any idea what its IC50 is? The compound is O=C(NC1C2CNCC21)c1nn(C(=O)c2c(Cl)cccc2Cl)cc1NC(=O)c1c(Cl)cccc1Cl (stereo not shown) 52

###

Experimental target: BRISC BRCC36 R167A (Homo sapiens, UniProt P46736+Q15018+Q9NXR7, R167A)
Experimental protocol: BRISC mutant IQF assay: BRCC36 R167A
Property: IC50
Phrase the answer as number then unit, nothing more needed.

Data request, read-out IC50, for O=C(NC1C2CNCC21)c1nn(C(=O)c2c(Cl)cccc2Cl)cc1NC(=O)c1c(Cl)cccc1Cl (stereo not shown) [FX-171-C] 1400 nM

###

Experimental target: BRISC Abraxas2 T140A (Homo sapiens, UniProt P46736+Q15018+Q9NXR7, T140A)
Experimental protocol: BRISC mutant IQF assay: Abraxas2 T140A
Experimental context: Abraxas 2 T140A
Property: IC50 (µM)
// note: answer is a bare numeric in µM

Look up IC50 with BRISC Abraxas2 T140A (Homo sapiens, UniProt P46736+Q15018+Q9NXR7, T140A) for this molecule: O=C(NC1C2CNCC21)c1nn(C(=O)c2c(Cl)cccc2Cl)cc1NC(=O)c1c(Cl)cccc1Cl (stereo not shown) 5

###

Experimental target: BRISC (Homo sapiens, UniProt P46736+Q15018+Q9NXR7)
Construct: made in house; host or cells: Spodoptera frugiperda (Sf9) insect cells, MultiBac
Experimental protocol: BRISC DUB activity assay (IQF K63-linked diubiquitin)
Type: biochemical
Experimental context: IQF K63-linked diubiquitin substrate; read-out: IC50, inhibition of BRISC DUB activity
Property: IC50 (µM)
Reply numerically in µM, unit not repeated.

INSERT INTO assay_data (compound, assay_value) VALUES
  ('O=C(NC1C2CNCC21)c1nn(C(=O)c2c(Cl)cccc2Cl)cc1NC(=O)c1c(Cl)cccc1Cl (stereo not shown)', 1.4);

Item: `C[N+]1(C)CCC(NC(=O)c2nn(C(=O)c3c(Cl)cccc3Cl)cc2NC(=O)c2c(Cl)cccc2Cl)CC1` Test system: BRISC (Homo sapiens, UniProt P46736+Q15018+Q9NXR7) Read-out: IC50 Value: ? 21

Fill in the recorded IC50 for this compound, with BRISC (Homo sapiens, UniProt P46736+Q15018+Q9NXR7) as test system: `CN1CCC(NC(=O)c2nn(C(=O)c3c(Cl)cccc3Cl)cc2NC(=O)c2c(Cl)cccc2Cl)CC1` 5.2

Lab request: please report IC50 under test system BRISC (Homo sapiens, UniProt P46736+Q15018+Q9NXR7) for `O=C(NC1CCNCC1)c1nn(C(=O)c2c(Cl)cccc2Cl)cc1NC(=O)c1c(Cl)cccc1Cl` 3.8

// provenance: paper PMC7617869
